Target: delta opioid receptor (DOR) (Homo sapiens, UniProt P41143)
Construct: NIMH Psychoactive Drug Screening Program (PDSP), University of North Carolina at Chapel Hill (performed the assay)
Sequence (P41143 whole entry): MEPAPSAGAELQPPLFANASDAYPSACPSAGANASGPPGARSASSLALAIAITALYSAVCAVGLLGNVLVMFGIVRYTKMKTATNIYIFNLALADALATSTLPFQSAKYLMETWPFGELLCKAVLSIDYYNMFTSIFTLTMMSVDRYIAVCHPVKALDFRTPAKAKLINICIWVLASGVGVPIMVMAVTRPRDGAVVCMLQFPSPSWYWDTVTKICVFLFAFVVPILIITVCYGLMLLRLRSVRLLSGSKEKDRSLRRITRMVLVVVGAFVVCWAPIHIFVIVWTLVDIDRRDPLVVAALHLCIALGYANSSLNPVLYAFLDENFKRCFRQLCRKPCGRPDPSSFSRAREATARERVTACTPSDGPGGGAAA
Experiment: Receptor binding, delta opioid receptor (NIMH PDSP)
Where a SMILES comes first, the peptide text is derived from it. Bridges are numbered along the chain shown (N, C = ends). [ ]: non-standard residue; d: D form. The star is where a group is joined. X1 = OC[C@H]1O[C@@H](O[C@H]2[C@H](O)[C@@H](O)[C@H](*)O[C@@H]2CO)[C@H](O)[C@@H](O)[C@H]1O; βGlc = OC[C@H]1O[C@@H](*)[C@H](O)[C@@H](O)[C@@H]1O; d1Nal = N[C@H](Cc1cccc2ccccc12)C(=O)O
Entries and their Ki

# COMPOUND, Ki
data = [
    ("NC(=O)[C@H](CO[C@@H]1O[C@H](CO)[C@@H](O)[C@H](O)[C@H]1O)NC(=O)CNC(=O)[C@@H]1CCC(=O)NCCCC[C@@H](NC(=O)[C@@H](N)Cc2ccc(O)cc2)C(=O)N[C@@H](Cc2c[nH]c3ccccc23)C(=O)N[C@@H](Cc2ccccc2)C(=O)N1", "≥ 10 µM"),
    ("NC(=O)[C@H](CO[C@@H]1O[C@H](CO)[C@@H](O)[C@H](O)[C@H]1O)NC(=O)[C@@H]1CCC(=O)NCCCC[C@@H](NC(=O)[C@@H](N)Cc2ccc(O)cc2)C(=O)N[C@H](Cc2cccc3ccccc23)C(=O)N[C@@H](Cc2ccccc2)C(=O)N1 [Analog A4] (H-Y[dK][d1Nal]FES(βGlc)-NH2; lactam 2-5)", "≥ 10 µM"),
    ("NC(=O)[C@H](CO[C@@H]1O[C@H](CO)[C@@H](O[C@@H]2O[C@H](CO)[C@H](O)[C@H](O)[C@H]2O)[C@H](O)[C@H]1O)NC(=O)[C@@H]1CCC(=O)NCCCC[C@@H](NC(=O)[C@@H](N)Cc2ccc(O)cc2)C(=O)N[C@H](Cc2cccc3ccccc23)C(=O)N[C@@H](Cc2ccccc2)C(=O)N1 [Analog A5] (H-Y[dK][d1Nal]FES(X1)-NH2; lactam 2-5)", "≥ 10 µM"),
    ("NC(=O)CNC(=O)[C@@H]1CCC(=O)NCCCC[C@@H](NC(=O)[C@@H](N)Cc2ccc(O)cc2)C(=O)N[C@@H](Cc2c[nH]c3ccccc23)C(=O)N[C@@H](Cc2ccccc2)C(=O)N1 [ZH853, reference compound]", "0.271 µM"),
]
